- System: CCRF-CEM leukemia
- TEST_SUMMARY: NCI-60 one-dose screen, 48 h (100 = growth as untreated, 0 = no growth, -100 = all killed)
- STATED_CONDITIONS: 10 µM
About 83,000 compounds went through this panel and 20% of them were active in at least one assay; those are over-represented in the sample as a whole.
Flag rule - growth less than 30% flags Met; the remaining entries get Not met.

Answered examples (4):
Q) In the record for `CNC(=S)Sc1ccc([N+](=O)[O-])cc1[N+](=O)[O-]` , is growth less than 30%?
A) Met

Q) In the record for `O=C1CC[C@@H](C(=O)N[C@H]2CSSC[C@@H](C(=O)NCCc3ccccc3)NC(=O)[C@H](Cc3ccccc3)NC(=O)[C@@H]3CCCN3C(=O)[C@@H]3CCCN3C2=O)N1` , is growth less than 30%?
A) Not met

Q) In the record for `Nc1c(C(=O)Nc2ccccc2F)sc2nc3c(cc12)C(=O)CCC3` , is growth less than 30%?
A) Met

Q) In the record for Cc1ccc(C2C=C(c3ccc(Cl)cc3)N=C3SC=CN32)c(Br)c1 (stereo not given) , is growth less than 30%?
A) Not met

Now consider a different molecule.
Q) In the record for `COc1ccc(-c2cn[nH]c2-c2cc(OC)c(OC)c(OC)c2)cc1` , is growth less than 30%?
A) Met

====

- System: SK-MEL-28 melanoma
- TEST_SUMMARY: NCI-60 one-dose screen, 48 h
- STATED_CONDITIONS: 10 µM
Compounds without any hit were thinned out: in the full panel of roughly 83,000, 20% have a hit. Calls of active or inactive are those of the source. The calls were made as follows: active = growth percent below 10; inactive = the rest.
Could you please pick one outcome from this set? true (1) = active, false (0) = inactive

Answered examples (5):
Q) What did the test return for `Cn1c([N+](=O)[O-])cnc1C=C1C(=O)c2ccccc2C1=O` ?
A) false (0)

Q) What did the test return for `N=C(N)c1ccc(-c2ccc(-c3ccccc3)s2)cc1F` ?
A) true (1)

Q) What did the test return for `Cc1nc(Nc2nc3ccccc3o2)nc(-c2cccc([N+](=O)[O-])c2)c1C(=O)Nc1ccc(F)c(Cl)c1` ?
A) false (0)

Q) What did the test return for `COc1cc(-c2nc3cc(Cl)c(Cl)cc3[nH]2)ccc1OCC(=O)NN` ?
A) false (0)

Q) What did the test return for OC(CNC1CCCC1)Cn1c2ccccc2c2ccccc21 (stereo not given) ?
A) true (1)

***
Q) What did the test return for O=C(c1ccccc1)C(Sc1ccccc1)c1ccccc1 (stereo not given) ?
A) false (0)

Q) What did the test return for `COc1ccc(-c2nc(NC(=O)CS(=O)(=O)c3ccc(F)cc3)sc2C)cc1` ?
A) false (0)

Q) What did the test return for `Cc1ccc(S(=O)(=O)N2CCc3ccccc3CC2)cc1` ?
A) false (0)

Q) What did the test return for `COC(=O)[C@]12CC[C@@H](C)[C@H](C)[C@@H]1C1=CC[C@@H]3[C@@]4(C)CC(=O)[C@H](O)[C@@](C)(CO)[C@@H]4C(=O)C[C@@]3(C)[C@]1(C)CC2` ?
A) false (0)

Q) What did the test return for `O=S(=O)(NC1c2ccccc2Oc2ccccc21)c1ccccc1` ?
A) false (0)

====

- System: MCF7 breast
- TEST_SUMMARY: NCI-60 one-dose screen, 48 h (100 = growth as untreated, 0 = no growth, -100 = all killed)
- STATED_CONDITIONS: 10 µM
The panel holds about 83,000 compounds, 20% with a hit somewhere; the sample as a whole holds those more often.
For each of the compounds below, state its growth.
One number for each entry, in %.

Observe how each entry below is paired with its result.
Q) Quickly give me recorded growth for `N=C(N)c1ccc(-c2ccc(-c3ccccc3)s2)s1`
A) -71.5

Q) Quickly give me recorded growth for `CCOC(=O)CSC(=S)SCC(=O)OCC`
A) 88.7

Q) Quickly give me recorded growth for COc1cc(C2C=C(c3ccc(Cl)cc3)N=C3SC(C)=CN32)cc(OC)c1OC (stereo unspecified)
A) 67.6

Q) Quickly give me recorded growth for CN(C)c1ccc2c(c1)OC(N)=C(C#N)C2c1ccc2c(c1)CCCN2C (stereo unspecified)
A) 18.1

Q) Quickly give me recorded growth for CN(C)c1ccc2c(c1)OC(N)=C(C#N)C2c1ccc2c(c1)CCO2 (stereo unspecified)
A) 16.9

Now examine the next entry.
Q) Quickly give me recorded growth for `NCCNc1ccc2cc(-c3nc4ccccc4[nH]3)c(=O)oc2c1`
A) 80.9

====

For each of the compounds below, state its growth.
- Test system: KM12 colon
- TEST_SUMMARY: NCI-60 one-dose screen, 48 h (100 = growth as untreated, 0 = no growth, -100 = all killed)
- STATED_CONDITIONS: 10 µM
This is part of a sample that, as a whole, favours compounds with a hit. Of some 83,000 tested, about 20% had one in any assay.
Answers are plain numbers, in %.

Observe how each entry below is paired with its result.
Q) Quickly give me recorded growth for COc1ccc(-c2nsc3c2NC(=O)CC3c2ccc(Cl)cc2)cc1 (stereo unspecified)
A) 82.7

Q) Quickly give me recorded growth for `Cc1ccc(/C(CS(=O)(=O)c2ccc(C)cc2)=N\O)cc1`
A) 115

Q) Quickly give me recorded growth for `Cc1ccc(C)c(S(=O)(=O)NC2c3ccccc3Oc3ccccc32)c1`
A) 102

Q) Quickly give me recorded growth for `CCN(CC)CCCOC(=O)Nc1ccccc1Cl`
A) 111

For every record below, what is its growth?
1. COc1ccc(-c2nc3sc(-c4ccccc4)c(-c4ccccc4)n3c2/C=C/c2ccc(F)cc2)cc1
2. O=CNc1c(Cl)cc2c(c1Cl)Cc1cc([N+](=O)[O-])ccc1-2

A)
90.7
25.6

====

- Test system: SK-MEL-2 melanoma
- TEST_SUMMARY: NCI-60 one-dose screen, 48 h (100 = growth as untreated, 0 = no growth, -100 = all killed)
- STATED_CONDITIONS: 10 µM
The panel holds about 83,000 compounds, 20% with a hit somewhere; the sample as a whole holds those more often.
Flag rule - growth less than 90% flags Met; the remaining entries get Not met.

Answered examples (5):
Q) In the record for `O=C(C=P(c1ccccc1)(c1ccccc1)c1ccccc1)c1ccc(Br)cc1` , is growth less than 90%?
A) Not met

Q) In the record for `CN(C1c2ccccc2Oc2ccccc21)S(=O)(=O)c1cc(Cl)ccc1Cl` , is growth less than 90%?
A) Met

Q) In the record for `Cc1ccc(C)c(S(=O)(=O)NC2c3ccccc3Oc3ccccc32)c1` , is growth less than 90%?
A) Not met

Q) In the record for `Oc1ccc(Cn2cc3c(c2-c2ccccc2)CCc2cnoc2-3)cc1` , is growth less than 90%?
A) Not met

Q) In the record for `COc1ccc(Nc2ccnc(N3CCN(c4ccnc5cc(Cl)ccc45)CC3)n2)cc1` , is growth less than 90%?
A) Met

Now consider a different molecule.
Q) In the record for `COc1ccc(NC(=O)CCn2cnc3c(cc(-c4ccccc4)n3-c3ccccc3)c2=O)cc1` , is growth less than 90%?
A) Not met

====

- Test system: NCI-H226 lung
- TEST_SUMMARY: NCI-60 one-dose screen, 48 h
- STATED_CONDITIONS: 10 µM
Compounds without any hit were thinned out: in the full panel of roughly 83,000, 20% have a hit. Active and inactive are the calls of the source. Rule for the calls: active = growth percent below 10; inactive = the rest.
Could you please pick one outcome from this set? active, inactive

Answered examples (4):
Q) What did the test return for `COC(=O)[C@]12CC[C@@H](C)[C@H](C)[C@@H]1C1=CC[C@@H]3[C@@]4(C)C/C(=N\O)[C@H](O)[C@@]5(C)COC(=C45)C[C@@]3(C)[C@]1(C)CC2` ?
A) active

Q) What did the test return for `COc1cc(C)c2sc3ccccc3c(=O)c2c1NCCN(C)C` ?
A) inactive

Q) What did the test return for `COC(=O)[C@]12CC[C@@H](C)[C@H](C)[C@@H]1C1=CC[C@@H]3[C@@]4(C)C[C@@H](O)[C@H](O)[C@@](C)(CO)[C@@H]4[C@H](O)C[C@@]3(C)[C@]1(C)CC2` ?
A) active

Q) What did the test return for CCOc1cc(Br)c(C(C)NC(=O)c2cccc(OC)c2)cc1OCC (stereo unspecified) ?
A) inactive

***
Q) What did the test return for `CC(C)OCc1cc(CN2CCN(c3cccc(Cl)c3)CC2)c(O)c2ncccc12` ?
A) active

Q) What did the test return for `COCc1cc2c(cc1Br)OCO2` ?
A) inactive

Q) What did the test return for CCN1CCOC1C(C)C (stereo unspecified) ?
A) inactive

Q) What did the test return for NC1CCC(Nc2nc(NCc3ccc(-c4ccccc4O)nc3)c3ncn(C4CCCC4)c3n2)CC1 (stereo unspecified) ?
A) active

Q) What did the test return for `C=C[C@]1(C)C=C2C(=O)[C@@]3(O)OC(=O)[C@@]4(CCCC(C)(C)[C@H]34)[C@@]2(O)CC1` ?
A) active

Q) What did the test return for CC(CNC(Cc1ccccc1)c1ccccc1)NC(Cc1ccccc1)c1ccccc1 (stereo unspecified) ?
A) inactive

Q) What did the test return for `COc1ccc(-c2oncc2-c2cc(OC)c3c(c2)OCO3)cc1` ?
A) inactive

Q) What did the test return for `O=C(/C=C/c1ccc(Cl)cc1)c1ccc(Br)cc1` ?
A) inactive

Q) What did the test return for `COC(=O)c1cnc2c(c1)Oc1ccc(Cl)cc1-c1cc(C)nn1-2` ?
A) inactive

Q) What did the test return for `O=C(Nc1cccc(C(F)(F)F)c1)C(Cl)Cl` ?
A) inactive

Q) What did the test return for `O=[N+]([O-])c1ccc(S(=O)(=O)OCCCCOS(=O)(=O)c2ccc([N+](=O)[O-])cc2)cc1` ?
A) inactive

Q) What did the test return for `CC(C)/C=N/NC(N)=S` ?
A) inactive

Q) What did the test return for `Nc1ncc(-c2ccc(C(F)(F)F)cc2)c(NC2CCCCCC2)n1` ?
A) inactive
